# tested-system: Vasopressin V2 receptor (Homo sapiens, UniProt P30518); also: assay procedure not described here
# Sequence (P30518 whole entry): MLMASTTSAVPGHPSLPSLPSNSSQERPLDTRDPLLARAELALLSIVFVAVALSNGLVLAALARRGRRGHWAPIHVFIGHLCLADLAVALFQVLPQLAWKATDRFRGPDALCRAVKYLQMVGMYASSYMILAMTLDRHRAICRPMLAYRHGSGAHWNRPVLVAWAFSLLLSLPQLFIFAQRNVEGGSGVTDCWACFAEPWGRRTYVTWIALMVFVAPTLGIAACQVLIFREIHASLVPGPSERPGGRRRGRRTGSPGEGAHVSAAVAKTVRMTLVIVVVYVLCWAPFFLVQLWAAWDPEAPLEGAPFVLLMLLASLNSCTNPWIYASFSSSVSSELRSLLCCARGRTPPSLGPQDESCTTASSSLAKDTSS
result-type: AC50

> print(dat)
                                    molecule  result.type  obs.value
 1  CN1CC(=O)N2[C@H](c3ccc4c(c3)OCO4)c3[nH]c4ccccc4c3C[C@@H]2C1=O         AC50    > 30 µM
 2                CCN(CC)CCOC(=O)c1ccc(N)cc1         AC50    > 30 µM
 3  CCOC(=O)[C@H](CCc1ccccc1)N[C@@H](C)C(=O)N1CCC[C@H]1C(=O)O         AC50    > 30 µM
 4  O=C1CCC(N2C(=O)c3ccccc3C2=O)C(=O)N1 (stereo unspecified) [THALIDOMIDE]         AC50    > 30 µM
 5  C#C[C@]1(O)CC[C@H]2[C@@H]3CCc4cc(O)ccc4[C@H]3CC[C@@]21C         AC50    > 30 µM
 6                 Nc1nc2ccc(OC(F)(F)F)cc2s1         AC50    > 30 µM
 7  CN[C@@H]1[C@H](O)[C@H](NC)[C@H]2O[C@@]3(O)C(=O)C[C@@H](C)O[C@H]3O[C@@H]2[C@H]1O         AC50    > 10 µM
 8  COc1ccc(C(=O)N2CCN(c3ccc4c(c3)CCC(=O)N4)CC2)cc1OC         AC50    > 30 µM
 9  NC1=NC(=O)C(c2ccccc2)O1 (stereo unspecified)         AC50    > 30 µM
10          CCC1(C2=CCCCCC2)C(=O)NC(=O)NC1=O         AC50    > 10 µM
11  CC(C)c1c(C(=O)Nc2ccccc2)c(-c2ccccc2)c(-c2ccc(F)cc2)n1CC[C@@H](O)C[C@@H](O)CC(=O)O         AC50    > 30 µM
12  COc1c(N2CCNC(C)C2)c(F)cc2c(=O)c(C(=O)O)cn(C3CC3)c12 (stereo unspecified)         AC50    > 10 µM
13  O=C(OCCN1CCOCC1)c1cccnc1Nc1cccc(C(F)(F)F)c1 [MORNIFLUMATE]         AC50    > 30 µM
14  CCCCCCCCOc1ccccc1C(=O)Nc1ccc(C(=O)OCC[N+](C)(CC)CC)cc1 [OTILONIUM BROMIDE]         AC50     9.9 µM
15  CC(=O)OCC(=O)[C@@]12OC3(CCCC3)O[C@@H]1C[C@H]1[C@@H]3CCC4=CC(=O)C=C[C@]4(C)[C@@]3(F)[C@@H](O)C[C@@]12C [AMCINONIDE]         AC50    > 10 µM
16               O=C(CCCCCCC(=O)Nc1ccccc1)NO         AC50    > 30 µM
17         C#CC1(OC(N)=O)CCCCC1 [ETHINAMATE]         AC50    > 10 µM
18  O=C(CCCCC(=O)Nc1c(I)cc(I)c(C(=O)O)c1I)Nc1c(I)cc(I)c(C(=O)O)c1I [IODIPAMIDE]         AC50    > 10 µM
19  NS(=O)(=O)c1cc(Cl)c(Cl)c(S(N)(=O)=O)c1 [DICHLORPHENAMIDE]         AC50    > 10 µM
20  CO/N=C(\C(=O)N[C@@H]1C(=O)N2C(C(=O)[O-])=C(C[N+]3(C)CCCC3)CS[C@H]12)c1csc(N)n1         AC50    > 30 µM
21                    CC1=CC(=O)c2ccccc2C1=O         AC50    > 10 µM
22  COc1ccc2c(c1)c(CC(=O)OCC(=O)O)c(C)n2C(=O)c1ccc(Cl)cc1         AC50    > 30 µM
23  COc1c(C)c2c(c(O)c1C/C=C(\C)CCC(=O)OCCN1CCOCC1)C(=O)OC2 [MYCOPHENOLATE MOFETIL]         AC50    > 30 µM
24         CCCCCCCCCCCC[N+](C)(C)CCOc1ccccc1         AC50     7.3 µM
25                        C[N+](C)(C)CC(=O)O         AC50    > 30 µM
26           Cc1cc(-c2ccccc2)nnc1NCCN1CCOCC1         AC50    > 30 µM
27  Cc1cc2c(OCC(CNC(C)(C)C)OC(=O)c3ccccc3)cccc2[nH]1 (stereo unspecified)         AC50    > 30 µM
28  COC(=O)[C@H]1[C@@H](OC(=O)c2ccccc2)C[C@@H]2CC[C@H]1N2C         AC50    > 30 µM
29  CCOc1cc(N)c([N+](=O)[O-])cc1C(=O)NC1CCN(CC2CC=CCC2)CC1 (stereo unspecified) [CINITAPRIDE]         AC50    > 30 µM
30  Cc1ccc(C(=O)c2cc(O)c(O)c([N+](=O)[O-])c2)cc1         AC50    > 10 µM
31  CCOC(=O)[C@H](CCc1ccccc1)N[C@H]1CCCN2CCC[C@@H](C(=O)O)N2C1=O         AC50    > 30 µM
32       CCCCCN(C)CCC(O)(P(=O)(O)O)P(=O)(O)O         AC50    > 30 µM
33  C=C1C[C@@H]2[C@H](CC[C@]3(C)C(=O)CC[C@@H]23)[C@@]2(C)C=CC(=O)C=C12         AC50    > 30 µM
34   Cc1ccc(-c2nc3ccc(C)cn3c2CC(=O)N(C)C)cc1         AC50    > 30 µM
35  CN1CCCN=C1COC(=O)C(O)(c1ccccc1)C1CCCCC1 (stereo unspecified)         AC50    > 10 µM
36  C[C@]12CCC(=O)C=C1CC[C@@H]1[C@@H]2CC[C@@]2(C)[C@H]1CC[C@]2(C)O         AC50    > 30 µM
